B1: C8orf76 (parent)
chain: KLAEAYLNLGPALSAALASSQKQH

Variants of: B1
test-method-notes: protein stability index of a GFP-peptide fusion (GPS, HEK-293T) (PSI 1-6); higher = more stable;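 also: lentivirally expressed fusions sorted by FACS into six bins by GFP to DsRed ratio, PSI derived from sequencing read proportions per bin multiplied by bin number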
condition-description: c terminus: a fixed tail appended
Quick rule: protein stability index of at least 2 means YES, below that means NO.

sequence-text: KLAEAYVNLGPALSAALASSQKQH
class-name: YES
--
sequence-text: KLAEAELNLGPALSAALASSQKQH
class-name: YES
--
sequence-text: KLAEAYLNLGPALHAALASSQKQH
class-name: YES
--
sequence-text: KDAEAYLNLGPALSAALASSQKQH
class-name: YES
--
sequence-text: KLAEAYMNLGPALSAALASSQKQH
class-name: NO
--
sequence-text: KLARAYLNLGPALSAALASSQKQH
class-name: NO
--
sequence-text: KLAEACLNLGPALSAALASSQKQH
class-name: YES
--
sequence-text: KLAEAYLNLGPALSAALASSQKKH
class-name: YES
--
sequence-text: KLAEAYLNLGPALSAALRSSQKQH
class-name: YES
--
sequence-text: KLPEAYLNLGPALSAALASSQKQH
class-name: YES
--
sequence-text: KLAMAYLNLGPALSAALASSQKQH
class-name: YES
